System: NCI-H23
Experiment: Cytotoxicity against human NCI-H23 cells assessed as cell growth at 10 uM after 48 hrs by SRB assay
Assay type: functional
Details: NCI-H23, 48 h, read-out: Activity
endpoint name: growth at 10 µM

INSERT INTO results (structure, reported_measurement) VALUES
  ('CCCSc1nc2ccc3c(c2[nH]1)C(=O)c1ccccc1C3=O', '69.8%'),
  ('CN(C)CCCSc1nc2ccc3c(c2[nH]1)C(=O)c1ccccc1C3=O', '53.8%'),
  ('O=C1c2ccccc2C(=O)c2c1ccc1[nH]c(=S)[nH]c21', '113%'),
  ('CCSc1nc2ccc3c(c2[nH]1)C(=O)c1ccccc1C3=O', '87.4%'),
  ('O=C1c2ccccc2C(=O)c2c1ccc1nc3n(c21)CCS3', '84.3%'),
  ('O=C1c2ccccc2C(=O)c2c1ccc1nc(SCCN3CCCC3)[nH]c21', '66.9%');
